Tested on: anti-HER2 antibody Trastuzumab
Experiment: Coupling of linker-drug conjugates with Trastuzumab
Format: physicochemical
Conditions: highest DAR (excessive coupling)
Procedure: The anti-B7-H3 antibody P2E5, anti-Claudin18.2 antibody IMAB362, and anti-HER2 antibody Trastuzumab (concentration was 15 mg/mL) were replaced into 50 mM PB/1.0 mM EDTA buffer (pH 7.0) by a G25 desalting column, respectively. 12 equivalents of TECP was added and the mixture was stirred at 37° C. for 2 hours to fully open the disulfide bonds between the antibody chains. […] The UV method was used to measure the absorbance values at 280 nm and 370 nm respectively, and the DAR value was calculated.
Starred links: 1 amine or outer side, 2 acyl side, 3 side chain; linkers in the order of their positions; H or OH if unused. Non-standard residues stand in square brackets, D forms with d. Residues, ends and D or L forms follow the SMILES beside them. *: point of attachment. Exatecan = CC[C@@]1(O)C(=O)OCc2c1cc1n(c2=O)Cc2c-1nc1cc(F)c(C)c3c1c2[C@@H](N*)CC3; X2 = CC[C@@]1(O)C(=O)OC(=O)C2=C1C=C1c3nc4cc(F)c(C)c5c4c(c3CN1C2)[C@@H](N*)CC5; Hexanoyl(6-maleimido) = O=C1C=CC(=O)N1CCCCCC(=O)*; NHCH2OCH2CO = O=C(COCN[*:1])[*:2]
metric-name: Whether precipitation

CC[C@@]1(O)C(=O)OCc2c1cc1n(c2=O)Cc2c-1nc1cc(F)c(C)c3c1c2[C@@H](NC(=O)COCNC(=O)CNC(=O)[C@H](Cc1ccccc1)NC(=O)[C@H](CS)NC(=O)[C@@H](NC(=O)CCCCCN1C(=O)C=CC1=O)C(C)C)CC3 [LE24] ({Hexanoyl(6-maleimido)}-VCFG[NHCH2OCH2CO]-Exatecan) | No
CC[C@@]1(O)C(=O)OC(=O)C2=C1C=C1c3nc4cc(F)c(C)c5c4c(c3CN1C2)[C@@H](NC(=O)COCNC(=O)CNC(=O)[C@H](Cc1ccccc1)NC(=O)CNC(=O)CNC(=O)[C@H](CCCCN)NC(=O)CCCCCN1C(=O)C=CC1=O)CC5 [LE06] ({Hexanoyl(6-maleimido)}-KGGFG[NHCH2OCH2CO]-X2) | No
CC[C@@]1(O)C(=O)OCc2c1cc1n(c2=O)Cc2c-1nc1cc(F)c(C)c3c1c2[C@@H](NC(=O)COCNC(=O)CNC(=O)[C@H](Cc1ccccc1)NC(=O)CNC(=O)[C@H](CCCCN)NC(=O)CCCCCN1C(=O)C=CC1=O)CC3.O=C(O)C(F)(F)F [LE07] ({Hexanoyl(6-maleimido)}-KGFG[NHCH2OCH2CO]-Exatecan) | No

----------
Tested on: anti-B7-H3 antibody P2E5
Test: Coupling of linker-drug conjugates with P2E5
Type: physicochemical
Conditions: coupling with P2E5, highest DAR (excessive coupling)
Starred links: 1 amine or outer side, 2 acyl side, 3 side chain; linkers in the order of their positions; H or OH if unused. Non-standard residues stand in square brackets, D forms with d. Residues, ends and D or L forms follow the SMILES beside them. *: point of attachment. Exatecan = CC[C@@]1(O)C(=O)OCc2c1cc1n(c2=O)Cc2c-1nc1cc(F)c(C)c3c1c2[C@@H](N*)CC3; X2 = CC[C@@]1(O)C(=O)OC(=O)C2=C1C=C1c3nc4cc(F)c(C)c5c4c(c3CN1C2)[C@@H](N*)CC5; Hexanoyl(6-maleimido) = O=C1C=CC(=O)N1CCCCCC(=O)*; NHCH2OCH2CO = O=C(COCN[*:1])[*:2]
Label met when Ratio of aggregates is at or above 2%; anything below gets not met.

Previously resolved entries follow.
CC[C@@]1(O)C(=O)OC(=O)C2=C1C=C1c3nc4cc(F)c(C)c5c4c(c3CN1C2)[C@@H](NC(=O)COCN(CCN(C)C)C(=O)OCc1ccc(NC(=O)[C@H](C)NC(=O)[C@@H](NC(=O)C2CCC(CN3C(=O)C=CC3=O)CC2)C(C)C)cc1)CC5 (some centres unmarked) [LE17] | not met
CC[C@@]1(O)C(=O)OCc2c1cc1n(c2=O)Cc2c-1nc1cc(F)c(C)c3c1c2[C@@H](NC(=O)COCNC(=O)CNC(=O)[C@H](Cc1ccccc1)NC(=O)[C@H](CS)NC(=O)[C@@H](NC(=O)CCCCCN1C(=O)C=CC1=O)C(C)C)CC3 [LE24] ({Hexanoyl(6-maleimido)}-VCFG[NHCH2OCH2CO]-Exatecan) | not met
CC[C@@]1(O)C(=O)OC(=O)C2=C1C=C1c3nc4cc(F)c(C)c5c4c(c3CN1C2)[C@@H](NC(=O)COCN(CCN(C)C)C(=O)OCc1ccc(NC(=O)[C@H](C)NC(=O)[C@@H](NC(=O)CCCCCN2C(=O)C=CC2=O)C(C)C)cc1)CC5 [LE13] | not met
CC[C@@]1(O)C(=O)OC(=O)C2=C1C=C1c3nc4cc(F)c(C)c5c4c(c3CN1C2)[C@@H](NC(=O)COCN(CCS(C)(=O)=O)C(=O)OCc1ccc(NC(=O)[C@H](C)NC(=O)[C@@H](NC(=O)CCCn2cc(CNC(=O)CCCCCN3C(=O)C=CC3=O)nn2)C(C)C)cc1)CC5 [LE19] | not met
CC[C@@]1(OCN(CCS(C)(=O)=O)C(=O)OCc2ccc(NC(=O)[C@H](C)NC(=O)[C@@H](NC(=O)CCCCCN3C(=O)C=CC3=O)C(C)C)cc2)C(=O)OCc2c1cc1n(c2=O)Cc2c-1nc1cc(F)c(C)c3c1c2[C@@H](NC(=O)CO)CC3 [LE21] | met

Exam item: decide whether the reported Ratio of aggregates for CC[C@@]1(O)C(=O)OC(=O)C2=C1C=C1c3nc4cc(F)c(C)c5c4c(c3CN1C2)[C@@H](NC(=O)COCNC(=O)CNC(=O)[C@H](Cc1ccccc1)NC(=O)CNC(=O)CNC(=O)[C@H](CCCCN)NC(=O)CCCCCN1C(=O)C=CC1=O)CC5 [LE06] ({Hexanoyl(6-maleimido)}-KGGFG[NHCH2OCH2CO]-X2) is at least 2%.
not met

Quick one: CC[C@@]1(OCN(CCN(C)C)C(=O)OCc2ccc(NC(=O)[C@H](C)NC(=O)[C@@H](NC(=O)CCCCCN3C(=O)C=CC3=O)C(C)C)cc2)C(=O)OCc2c1cc1n(c2=O)Cc2c-1nc1cc(F)c(C)c3c1c2[C@@H](NC(=O)CO)CC3 [LE22]
met

Item: CC[C@@]1(O)C(=O)OC(=O)C2=C1C=C1c3nc4cc(F)c(C)c5c4c(c3CN1C2)[C@@H](NC(=O)COCN(CCS(C)(=O)=O)C(=O)OCc1ccc(NC(=O)[C@H](C)NC(=O)[C@@H](NC(=O)C(CCCCN2C(=O)C=CC2=O)S(=O)(=O)O)C(C)C)cc1)CC5 (some centres unmarked) [LE15]
met

And the next one, CC[C@@]1(O)C(=O)OCc2c1cc1n(c2=O)Cc2c-1nc1cc(F)c(C)c3c1c2[C@@H](NC(=O)COCNC(=O)CNC(=O)[C@H](Cc1ccccc1)NC(=O)[C@H](C)NC(=O)[C@@H](NC(=O)CCCCCN1C(=O)C=CC1=O)C(C)C)CC3 [LE23] ({Hexanoyl(6-maleimido)}-VAFG[NHCH2OCH2CO]-Exatecan) ?
not met

Another compound: CCC1(O)C(=O)OC(=O)C2=C1C=C1c3nc4cc(F)c(C)c5c4c(c3CN1C2)C(NC(=O)COCNC(=O)CNC(=O)C(Cc1ccccc1)NC(=O)CNC(=O)CNC(=O)C(CN)N1C(=O)C=CC1=O)CC5 (centres unmarked) [LE03]
not met

Repeat for the following compound: CCC1(O)C(=O)OC(=O)C2=C1C=C1c3nc4cc(F)c(C)c5c4c(c3CN1C2)C(NC(=O)COCNC(=O)CNC(=O)C(Cc1ccccc1)NC(=O)CNC(=O)CNC(=O)C(CCCCN1C(=O)C=CC1=O)S(=O)(=O)O)CC5 (centres unmarked) [LE02]
not met

Cited source: patent US20220233708A1
